Give EC50 for every item shown.
- assay.notes: Cytotoxicity against mouse NIH/3T3 cells after 96 hrs by SRB assay
- Type: cell-based, NIH3T3
- conditions.used: Mus musculus, NIH3T3, 96 h; read-out: EC50
Report the value in µM with no unit label.

Challenge: Recorded EC50 for "C=C(C)[C@@H]1CC[C@]2(COC(=O)NCC)CC[C@]3(C)[C@H](CC[C@@H]4[C@@]5(C)CCC(=O)C(C)(C)[C@@H]5CC[C@]43C)[C@@H]12" , please?
Response given: 4.6

Challenge: Recorded EC50 for "C=C(C)[C@@H]1CC[C@]2(C(=O)N(C)O)CC[C@]3(C)[C@H](CC[C@@H]4[C@@]5(C)CC[C@H](OC(C)=O)C(C)(C)[C@@H]5CC[C@]43C)[C@@H]12" , please?
Response given: 2.9

###

- assay.notes: Cytotoxicity against mouse NIH/3T3 cells after 96 hrs by SRB assay
- Type: cell-based, NIH3T3
- conditions.used: Mus musculus, NIH3T3, 96 h; read-out: EC50
readout.name: pEC50
For clarity, pEC50 is expressed as the negative log10 of concentration in mol/L.

Challenge: Recorded pEC50 for C=C(C)[C@@H]1CC[C@]2(C(=O)O)CC[C@]3(C)[C@H](CC[C@@H]4[C@@]5(C)CC[C@H](O)C(C)(C)[C@@H]5CC[C@]43C)[C@@H]12 [BETULINIC ACID] , please?
Response given: 4.79

Challenge: Recorded pEC50 for "C=C(C)[C@@H]1CC[C@]2(COC(=O)NCCC)CC[C@]3(C)[C@H](CC[C@@H]4[C@@]5(C)CC[C@H](O)C(C)(C)[C@@H]5CC[C@]43C)[C@@H]12" , please?
Response given: 5.14

###

Give pEC50 for every item shown.
- assay.notes: Cytotoxicity against human 518A2 cells after 96 hrs by SRB assay
- Assay type: functional, cell-based
- conditions.used: Homo sapiens, 518A2, 96 h; read-out: EC50
For clarity, pEC50 is expressed as the negative log10 of concentration in mol/L.

Challenge: Recorded pEC50 for "C=C(C)[C@@H]1CC[C@]2(COC(=O)Nc3ccccc3)CC[C@]3(C)[C@H](CC[C@@H]4[C@@]5(C)CC[C@H](O)C(C)(C)[C@@H]5CC[C@]43C)[C@@H]12" , please?
Response given: 4.62

Challenge: Recorded pEC50 for "C=C(C)[C@@H]1CC[C@]2(COC(=O)NCC)CC[C@]3(C)[C@H](CC[C@@H]4[C@@]5(C)CC[C@H](OC(C)=O)C(C)(C)[C@@H]5CC[C@]43C)[C@@H]12" , please?
Response given: 4.99

Challenge: Recorded pEC50 for "C=C(C)[C@@H]1CC[C@]2(C(=O)O)CC[C@]3(C)[C@H](CC[C@@H]4[C@@]5(C)CC[C@H](O)C(C)(C)[C@@H]5CC[C@]43C)[C@@H]12" , please?
Response given: 5.03

Challenge: Recorded pEC50 for "C=C(C)[C@@H]1CC[C@]2(C(=O)NO)CC[C@]3(C)[C@H](CC[C@@H]4[C@@]5(C)CC[C@H](O)C(C)(C)[C@@H]5CC[C@]43C)[C@@H]12" , please?
Response given: 5.62

Challenge: Recorded pEC50 for "C=C(C)[C@@H]1CC[C@]2(COC(=O)NCCCC)CC[C@]3(C)[C@H](CC[C@@H]4[C@@]5(C)CC[C@H](O)C(C)(C)[C@@H]5CC[C@]43C)[C@@H]12" , please?
Response given: 5.10

Challenge: Recorded pEC50 for "C=CCONC(=O)[C@]12CC[C@@H](C(=C)C)[C@@H]1[C@H]1CC[C@@H]3[C@@]4(C)CCC(=O)C(C)(C)[C@@H]4CC[C@@]3(C)[C@]1(C)CC2" , please?
Response given: 4.65

Challenge: Recorded pEC50 for "C=C(C)[C@@H]1CC[C@]2(C(=O)NOC)CC[C@]3(C)[C@H](CC[C@@H]4[C@@]5(C)CCC(=O)C(C)(C)[C@@H]5CC[C@]43C)[C@@H]12" , please?
Response given: 4.76

Challenge: Recorded pEC50 for "C=C(C)[C@@H]1CC[C@]2(COC(=O)NCC)CC[C@]3(C)[C@H](CC[C@@H]4[C@@]5(C)CCC(=O)C(C)(C)[C@@H]5CC[C@]43C)[C@@H]12" , please?
Response given: 4.78

Challenge: Recorded pEC50 for "C=C(C)[C@@H]1CC[C@]2(C(=O)N(C)O)CC[C@]3(C)[C@H](CC[C@@H]4[C@@]5(C)CC[C@H](OC(C)=O)C(C)(C)[C@@H]5CC[C@]43C)[C@@H]12" , please?
Response given: 5.46

Challenge: Recorded pEC50 for "C=C(C)[C@@H]1CC[C@]2(COC(=O)NCCCCCC)CC[C@]3(C)[C@H](CC[C@@H]4[C@@]5(C)CC[C@H](O)C(C)(C)[C@@H]5CC[C@]43C)[C@@H]12" , please?
Response given: 5.26

Challenge: Recorded pEC50 for "C=C(C)[C@@H]1CC[C@]2(CO)CC[C@]3(C)[C@H](CC[C@@H]4[C@@]5(C)CC[C@H](OC(C)=O)C(C)(C)[C@@H]5CC[C@]43C)[C@@H]12" , please?
Response given: 4.82

###

- assay.notes: Cytotoxicity against mouse NIH/3T3 cells after 96 hrs by SRB assay
- Format: cell-based, NIH3T3
- conditions.used: Mus musculus, NIH3T3, 96 h; read-out: EC50
readout.name: EC50 (µM)
Report the value in µM with no unit label.

Challenge: Recorded EC50 for "C=C(C)[C@@H]1CC[C@]2(C(=O)N(C)OC)CC[C@]3(C)[C@H](CC[C@@H]4[C@@]5(C)CCC(=O)C(C)(C)[C@@H]5CC[C@]43C)[C@@H]12" , please?
Response given: 26.7

Challenge: Recorded EC50 for "C=C(C)[C@@H]1CC[C@]2(C(=O)NO)CC[C@]3(C)[C@H](CC[C@@H]4[C@@]5(C)CC[C@H](OC(C)=O)C(C)(C)[C@@H]5CC[C@]43C)[C@@H]12" , please?
Response given: 1.1

Challenge: Recorded EC50 for "C=C(C)[C@@H]1CC[C@]2(C(=O)N(C)O)CC[C@]3(C)[C@H](CC[C@@H]4[C@@]5(C)CCC(=O)C(C)(C)[C@@H]5CC[C@]43C)[C@@H]12" , please?
Response given: 5

###

- assay.notes: Cytotoxicity against human 518A2 cells after 96 hrs by SRB assay
- Type: functional, cell-based
- conditions.used: Homo sapiens, 518A2, 96 h; read-out: EC50
pEC50: −log10 of the molar value.
Give pEC50 for every item shown.

Challenge: Recorded pEC50 for "C=C(C)[C@@H]1CC[C@]2(C(=O)N(C)OC)CC[C@]3(C)[C@H](CC[C@@H]4[C@@]5(C)CCC(=O)C(C)(C)[C@@H]5CC[C@]43C)[C@@H]12" , please?
Response given: < 4.52

Challenge: Recorded pEC50 for "C=C(C)[C@@H]1CC[C@]2(COC(=O)Nc3ccccc3)CC[C@]3(C)[C@H](CC[C@@H]4[C@@]5(C)CCC(=O)C(C)(C)[C@@H]5CC[C@]43C)[C@@H]12" , please?
Response given: < 4.52

Challenge: Recorded pEC50 for "C=C(C)[C@@H]1CC[C@]2(C(=O)NCc3ccccc3)CC[C@]3(C)[C@H](CC[C@@H]4[C@@]5(C)CCC(=O)C(C)(C)[C@@H]5CC[C@]43C)[C@@H]12" , please?
Response given: < 4.52

###

Give pEC50 for every item shown.
- assay.notes: Cytotoxicity against mouse NIH/3T3 cells after 96 hrs by SRB assay
- Type: cell-based, NIH3T3
- conditions.used: Mus musculus, NIH3T3, 96 h; read-out: EC50
pEC50: −log10 of the molar value.

Challenge: Recorded pEC50 for "C=C(C)[C@@H]1CC[C@]2(C(=O)O)CC[C@]3(C)[C@H](CC[C@@H]4[C@@]5(C)CC[C@H](OC(C)=O)C(C)(C)[C@@H]5CC[C@]43C)[C@@H]12" , please?
Response given: < 4.52

Challenge: Recorded pEC50 for "C=C(C)[C@@H]1CC[C@]2(C(=O)NCc3ccccc3)CC[C@]3(C)[C@H](CC[C@@H]4[C@@]5(C)CC[C@H](OC(C)=O)C(C)(C)[C@@H]5CC[C@]43C)[C@@H]12" , please?
Response given: < 4.52

Challenge: Recorded pEC50 for C=C(C)[C@@H]1CC[C@]2(COC(C)=O)CC[C@]3(C)[C@H](CC[C@@H]4[C@@]5(C)CC[C@H](OC(C)=O)C(C)(C)[C@@H]5CC[C@]43C)[C@@H]12 [BETULIN DIACETATE] , please?
Response given: < 4.52

###

- assay.notes: Cytotoxicity against mouse NIH/3T3 cells after 96 hrs by SRB assay
- Format: cell-based, NIH3T3
- conditions.used: Mus musculus, NIH3T3, 96 h; read-out: EC50
pEC50: −log10 of the molar value.
readout.name: pEC50

Challenge: Recorded pEC50 for "C=C(C)[C@@H]1CC[C@]2(COC(=O)NCCCCCC)CC[C@]3(C)[C@H](CC[C@@H]4[C@@]5(C)CCC(=O)C(C)(C)[C@@H]5CC[C@]43C)[C@@H]12" , please?
Response given: < 4.52

Challenge: Recorded pEC50 for "C=C(C)[C@@H]1CC[C@]2(COC(=O)NCCC)CC[C@]3(C)[C@H](CC[C@@H]4[C@@]5(C)CC[C@H](OC(C)=O)C(C)(C)[C@@H]5CC[C@]43C)[C@@H]12" , please?
Response given: < 4.52

Challenge: Recorded pEC50 for "C=CCONC(=O)[C@]12CC[C@@H](C(=C)C)[C@@H]1[C@H]1CC[C@@H]3[C@@]4(C)CC[C@H](OC(C)=O)C(C)(C)[C@@H]4CC[C@@]3(C)[C@]1(C)CC2" , please?
Response given: < 4.52
